The reported numbers originate from paper PMC12799421.

# test target: ACKR3 (Homo sapiens)
# Construct: expressed in transfected cells; host or cells: HEK293T
# measurement notes: BRET β-arrestin2 recruitment to hACKR3 in HEK293T cells
# Assay type: cell-based
# assay setup: constitutive, no agonist; read-out: IC50, reduction of β-arrestin2 recruitment to hACKR3 (BRET)
pIC50: −log10 of the molar value.
property: pIC50

molecule="COc1ccccc1CCNC(=O)C1CN(C2CCCCC2)CCC1NC(=O)c1cc(-c2ccc(F)cc2F)on1 (stereo not shown) [VUF16840]" numeric_result=8.00

###

# test target: CCR3 (Homo sapiens)
# Sequence (P51677 whole entry): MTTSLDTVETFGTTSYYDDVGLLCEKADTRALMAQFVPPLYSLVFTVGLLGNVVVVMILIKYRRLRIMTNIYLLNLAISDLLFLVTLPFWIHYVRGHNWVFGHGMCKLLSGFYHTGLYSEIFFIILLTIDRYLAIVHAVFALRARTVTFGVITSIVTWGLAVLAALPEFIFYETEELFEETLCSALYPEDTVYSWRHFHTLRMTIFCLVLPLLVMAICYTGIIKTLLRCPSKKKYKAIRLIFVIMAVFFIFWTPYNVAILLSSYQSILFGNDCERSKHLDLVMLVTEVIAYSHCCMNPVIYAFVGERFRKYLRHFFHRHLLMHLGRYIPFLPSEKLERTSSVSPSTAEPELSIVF
# Sequence (P32121 whole entry partner): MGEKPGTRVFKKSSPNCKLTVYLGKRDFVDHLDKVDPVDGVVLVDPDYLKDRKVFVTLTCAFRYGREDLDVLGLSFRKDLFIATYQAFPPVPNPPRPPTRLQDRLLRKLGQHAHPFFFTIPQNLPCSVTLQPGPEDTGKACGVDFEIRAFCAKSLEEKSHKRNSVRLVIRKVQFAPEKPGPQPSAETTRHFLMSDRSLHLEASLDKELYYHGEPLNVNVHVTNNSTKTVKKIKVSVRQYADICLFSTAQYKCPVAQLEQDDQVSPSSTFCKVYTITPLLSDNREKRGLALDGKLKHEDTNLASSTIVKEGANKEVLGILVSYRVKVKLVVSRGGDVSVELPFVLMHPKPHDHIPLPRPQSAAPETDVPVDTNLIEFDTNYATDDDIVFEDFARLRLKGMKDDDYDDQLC
# measurement notes: NanoBiT β-arrestin2 recruitment to CCR3, concentration-response
# assay setup: HEK293T, NanoBiT; read-out: EC50, activation of CCR3 (β-arrestin2 recruitment)
# Protocol: The pharmacological modulation of all chemokine receptors by VUF16840 was performed according to an established method.[8]^,[23]^,[39] Briefly, β-arrestin2 recruitment to chemokine receptors in response to 1 μM VUF16840 or positive control chemokines was monitored by NanoLuc complementation assay (NanoBiT, Promega). […] Supplemental Figure 5 – Modulation of CCR3 receptor by VUF16840. […] The concentration-dependent activation of the CCR3 was determined for VUF16840 and the endogenous agonist CCL13. […]
pEC50: −log10 of the molar value.
property: pEC50

compound="COc1ccccc1CCNC(=O)C1CN(C2CCCCC2)CCC1NC(=O)c1cc(-c2ccc(F)cc2F)on1 (stereo not shown) [VUF16840]" test_target="CCR3 (Homo sapiens)" numeric_result=6.70

###

Each entry below carries its reported IC50.
# test target: NLuc-hACKR3 (Homo sapiens)
# measurement notes: NanoBRET ligand binding assay (CXCL12-AF647 displacement)
# assay setup: 0.3 nM CXCL12-AF647, HEK293T membranes; read-out: IC50, displacement of CXCL12-A647 binding to NLuc-hACKR3
property: IC50 (nM)

compound="COc1ccccc1CCNC(=O)C1CN(C2CCCCC2)CCC1NC(=O)c1cc(-c2ccc(F)cc2F)on1 (centres unmarked) [VUF16840]" numeric_result=7
compound="COc1cc(C(=O)N(CCC2CCCN2C)CC(C)=Cc2ccccc2F)cc(OC)c1OC (centres unmarked) [VUF15485, reference compound]" numeric_result=28

###

# test target: ACKR3 (Homo sapiens, UniProt P25106)
# Construct: expressed in transfected cells; host or cells: HEK293T
# Sequence (P25106 whole entry): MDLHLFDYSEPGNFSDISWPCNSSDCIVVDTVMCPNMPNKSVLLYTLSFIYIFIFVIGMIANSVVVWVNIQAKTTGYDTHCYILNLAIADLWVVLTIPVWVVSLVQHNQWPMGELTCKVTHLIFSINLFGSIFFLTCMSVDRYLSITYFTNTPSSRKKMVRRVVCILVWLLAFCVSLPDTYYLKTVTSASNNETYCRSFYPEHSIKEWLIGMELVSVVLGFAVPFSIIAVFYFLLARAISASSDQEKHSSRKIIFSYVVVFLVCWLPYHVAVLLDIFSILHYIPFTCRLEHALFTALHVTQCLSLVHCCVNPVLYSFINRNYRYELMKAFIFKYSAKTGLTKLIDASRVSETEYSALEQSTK
# measurement notes: NanoBiT-complementation β-arrestin2 recruitment to hACKR3 in HEK293T cells
# Format: cell-based
# assay setup: inverse agonist, after 30 minutes of incubation; read-out: IC50, inhibition of constitutive β-arrestin2 recruitment to hACKR3 (NanoBiT)
property: IC50 (nM)

compound="COc1ccccc1CCNC(=O)C1CN(C2CCCCC2)CCC1NC(=O)c1cc(-c2ccc(F)cc2F)on1 (stereo not shown)" test_target="ACKR3 (Homo sapiens, UniProt P25106)" numeric_result=6.3
